target: β-catenin141–305 (Homo sapiens); construct: Amino acids 141-305 of uniprot ID: P35222; GST (cleaved yes); made in house; host or cells: E. coli BL21 (DE3); assay: 2D 15N NMR (TROSY/HSQC/HMQC) detected binding and Kd titration; conditions: titration curve of single cross peak V208; read-out: NMR Kd, cross peak V208
Quantity: Kd (mM)
Numbers only, in mM.

Please look up its Kd: CN1C[C@@H](c2cccc(C#N)c2)Oc2ccccc2C1=O 1.16

====

I'd be grateful if you could share measured pKd for these entries.
Molecular target: β-catenin141–305 (Homo sapiens, UniProt P35222)
Construct: Amino acids 141-305 of uniprot ID: P35222; GST (cleaved yes); made in house; host or cells: E. coli BL21 (DE3)
Sequence (P35222 141-305): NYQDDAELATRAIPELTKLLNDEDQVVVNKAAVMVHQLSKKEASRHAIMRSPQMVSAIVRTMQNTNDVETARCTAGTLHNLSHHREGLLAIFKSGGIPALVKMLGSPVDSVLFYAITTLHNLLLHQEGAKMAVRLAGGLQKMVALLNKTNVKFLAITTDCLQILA
Assay: Surface Plasmon Resonance (SPR) Kd determination
Assay type: binding
Conditions: mean of three independent experiments ± SD; 1:1 steady-state fit
Protocol: Surface Plasmon Resonance (SPR) A Biacore T200 instrument was used for SPR analysis, β-catenin141-305 was pre-diluted to a concentration of 0.1 mg/mL with 10 mM sodium acetate buffer, pH 5.0 and immobilized at a density of 6000 –7000 response units on flow cell 2 of a Biacore CM5 chip. […] K d values were determined by global fitting of the steady-state response for each of the 9 concentrations to a 1:1 interaction model using the Biacore T200 evaluation software. […]
pKd: −log10 of the molar value.

Some solved cases for reference:
CN1C[C@H](c2ccccc2)Oc2ccccc2C1=O: < 2.00
CN1C[C@@H](c2cccc(C#N)c2)Oc2ccccc2C1=O: 2.86
CN1C[C@@H](c2ccccc2)Oc2ccccc2C1=O: < 2.00

Value wanted: pKd (β-catenin141–305 (Homo sapiens, UniProt P35222)) of entry CN1C[C@H](c2cccc(C#N)c2)Oc2ccccc2C1=O < 2.00

====

experiment: Solubility in NMR buffer at pH 7.5 by quantitative NMR (maleic acid external standard); assay type: physicochemical; conditions: NMR buffer (Tris/NaCl with 2% DMSO-d6), aqueous buffer, kinetic from dmso stock; NMR buffer pH 7.5; intended concentration 500 or 2000 μM; read-out: Solub. pH 7.5
Quantity: solubility

CC1SCC(=O)Nc2cc(Cl)ccc21 (stereo not shown) [Compound 2]: > 500 µM

Hi! Can you tell me solubility for each of these compounds?
1. CN1C[C@H](c2ccccc2)Oc2ccccc2C1=O [Compound 5]
2. CN1CC(c2ccccc2)Nc2ccccc2C1=O (stereo not shown) [Compound 3]

1. > 2000 µM
2. 1000 µM

Hi! Can you tell me solubility for each of these compounds?
1. O=C1NCCNc2c1cccc2[N+](=O)[O-] [Compound 1]
2. CN1C[C@H](c2cccc(C#N)c2)Oc2ccccc2C1=O [Compound 7]
3. CN1C[C@@H](c2cccc(C#N)c2)Oc2ccccc2C1=O [Compound 6]
4. CN1C[C@@H](c2ccccc2)Oc2ccccc2C1=O [Compound 4]

1: > 500 µM; 2: > 2000 µM; 3: > 2000 µM; 4: > 2000 µM

====

target: β-catenin141–305 (Homo sapiens); construct: Amino acids 141-305 of uniprot ID: P35222; GST (cleaved yes); made in house; host or cells: E. coli BL21 (DE3); experiment: Microscale Thermophoresis (MST) screening and Kd determination; format: binding; details: 50 nM labeled β-catenin141–305, single titration
Quantity: pKd
Give bare numbers, as −log10 of the molar value.

Please look up its pKd: CC1SCC(=O)Nc2cc(Cl)ccc21 (stereo not shown) 3.09

// provenance: paper PMC8247886
